system: LXRb:RXRa (NR concentration 270 nM, RXRa partner concentration 90 nM); assay: PBM binding z-score (relative to random genomic background probes); higher = stronger binding; sequences stand for … in GC…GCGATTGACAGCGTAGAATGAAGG
Give Fulfilled when the value for PBM binding z-score is at least 2. Give Not fulfilled when it is less.

Please review the following examples before continuing.
> print(dat)
                                  seq                           subject.of.test       category
1  CCTACTGGGCCAAAAAGGTCATTGGTGCCGATAA  LXRb:RXRa (NR concentration 270 nM, RXRa partner concentration 90 nM)      Fulfilled
2  CCTCGGAGGACAACAGGAGGTCAGATCTGCCAGA  LXRb:RXRa (NR concentration 270 nM, RXRa partner concentration 90 nM)  Not fulfilled
3  TTACCAAGTTGAAAGGTCGTTGATGCACGCCTTG  LXRb:RXRa (NR concentration 270 nM, RXRa partner concentration 90 nM)      Fulfilled
4  ACTCGGAGGACAAAGGTCAGAGCCACGCCAGTGA  LXRb:RXRa (NR concentration 270 nM, RXRa partner concentration 90 nM)      Fulfilled
5  TCTTGTAGATCAAAGGTTAAGGAAGCCGAAGCCT  LXRb:RXRa (NR concentration 270 nM, RXRa partner concentration 90 nM)  Not fulfilled

Query: Given the entry "CCTACTGGGCCATCAGGTCATTGGTATCAACGTT" , answer whether its PBM binding z-score meets or surpasses 2.
Response: Not fulfilled

Query: State whether the measured PBM binding z-score reaches 2, counting equality as reaching it, for "ATCTCTAGGTAAGACTCAGTGCAGTGAAGAACGC"
Response: Not fulfilled

Query: Exam item: decide whether the reported PBM binding z-score for "CCTAGCACGCCAATCTGGGTCACTCAAGGCTTGA" is at least 2.
Response: Not fulfilled

Query: Answer whether PBM binding z-score of "TCTCGGAGGACACGAAAGGTCAGAGCCCGACATC" is greater than or equal to 2.
Response: Fulfilled

Query: # bool: PBM binding z-score of "AGAACGAGGGCAATGAGTTGATTGCACGGGTGGC" >= 2
Response: Not fulfilled

Query: # check: PBM binding z-score of "GCCTACGGGTCAAAGGTTATAGCATGAATAGAAT" is greater than or equal to 2
Response: Fulfilled

Query: Textbook exercise: given the entry "TCATTTAGGTAAACAGGTGAAAGTCCGTAAGTTA" , state whether its PBM binding z-score is greater than or equal to 2.
Response: Not fulfilled
